- Assayed system: pY1068 EGFR L858R-T790M (Homo sapiens, UniProt P00533, L858R/T790M)
- Construct: NCI-H1975 (harboring EGFR heterozygous L858R-T790M mutations)
- Sequence (P00533 25-1210 T790M/L858R): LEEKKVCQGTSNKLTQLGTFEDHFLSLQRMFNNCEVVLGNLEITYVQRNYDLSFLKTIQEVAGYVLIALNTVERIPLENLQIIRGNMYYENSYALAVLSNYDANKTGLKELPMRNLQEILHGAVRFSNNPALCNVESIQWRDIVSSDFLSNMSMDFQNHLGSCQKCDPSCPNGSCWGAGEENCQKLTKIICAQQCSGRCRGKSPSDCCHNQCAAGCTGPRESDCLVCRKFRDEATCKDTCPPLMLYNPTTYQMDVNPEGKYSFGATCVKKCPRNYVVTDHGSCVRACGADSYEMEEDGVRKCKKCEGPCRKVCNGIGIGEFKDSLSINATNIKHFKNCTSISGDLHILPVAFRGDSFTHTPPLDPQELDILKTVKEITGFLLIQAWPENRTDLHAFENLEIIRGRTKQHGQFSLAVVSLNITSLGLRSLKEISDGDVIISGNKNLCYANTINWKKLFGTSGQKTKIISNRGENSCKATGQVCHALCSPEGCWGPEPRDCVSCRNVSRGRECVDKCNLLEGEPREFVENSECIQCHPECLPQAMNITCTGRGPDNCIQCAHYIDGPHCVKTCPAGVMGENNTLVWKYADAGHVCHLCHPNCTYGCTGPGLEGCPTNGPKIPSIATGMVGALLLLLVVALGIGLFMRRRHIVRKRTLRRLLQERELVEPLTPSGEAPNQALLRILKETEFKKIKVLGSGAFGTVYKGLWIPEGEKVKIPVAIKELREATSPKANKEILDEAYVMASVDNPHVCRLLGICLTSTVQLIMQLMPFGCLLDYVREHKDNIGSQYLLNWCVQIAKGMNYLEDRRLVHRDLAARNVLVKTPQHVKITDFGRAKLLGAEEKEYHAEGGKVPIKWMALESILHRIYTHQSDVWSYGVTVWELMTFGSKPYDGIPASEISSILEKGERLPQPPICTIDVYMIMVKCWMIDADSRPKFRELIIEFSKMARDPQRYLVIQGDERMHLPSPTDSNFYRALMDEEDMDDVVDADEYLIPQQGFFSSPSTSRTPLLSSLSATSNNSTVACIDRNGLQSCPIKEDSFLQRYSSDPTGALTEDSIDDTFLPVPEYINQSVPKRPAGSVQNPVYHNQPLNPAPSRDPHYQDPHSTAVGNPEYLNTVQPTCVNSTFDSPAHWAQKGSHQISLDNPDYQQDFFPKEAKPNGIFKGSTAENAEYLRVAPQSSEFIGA
- Method: Phospho-EGFR (pY1068) inhibition HTRF, NCI-H1975
- Test parameters: 6 hours, read-out: pEGFR IC50
- Description: NCI-H1975 (harboring EGFR heterozygous L858R-T790M mutations) and NCI-H3255 (harboring EGFR heterozygous L858R mutation) were purchased from ATCC and NCI, respectively. […] Degradation of EGFR protein containing L858R mutation or wild-type was determined based on quantification of FRET signal using a Total EGFR (L858R-specific or pan-EGFR detecting) HTRF assay kit. Phospho-EGFR (pEGFR) inhibition was determined based on quantification of FRET signal using a pY1068 EGFR HTRF assay kit. […]
Measurement type: IC50 (nM)

Compound	Unit abbrev	Reading
O=C1CC[C@H](Nc2ccc(N3CCC(O)(CC(=O)N4CCC5(CC4)CN(c4ccc(-c6cc(F)c7c(c6)C(=O)N(C(C(=O)Nc6nccs6)c6ncn8c6CCC8)C7)cc4)C5)CC3)c(F)c2)C(=O)N1 (stereo partly drawn) [Compound 9]	nM	30
Cn1nc(N2CCC(=O)NC2=O)c2ccc(C3CCN(CC(=O)N4CC5(C4)CN(c4ccc(-c6cc(F)c7c(c6)C(=O)N(C(C(=O)Nc6ccccn6)c6ncn8c6CCC8)C7)cc4)C5)CC3(F)F)cc21 (stereo not drawn) [Compound 5]	nM	12
Cn1nc(N2CCC(=O)NC2=O)c2ccc(C3CCN(CC(=O)N4CC5(C4)CN(c4ccc(-c6cc(F)c7c(c6)C(=O)N(C(C(=O)Nc6nccs6)c6ncn8c6CCC8)C7)cc4)C5)CC3(F)F)cc21 (stereo not drawn) [Compound 3]	nM	11
Cn1nc(N2CCC(=O)NC2=O)c2ccc([C@H]3CCN(CC(=O)N4CC5(C4)CN(c4ccc(-c6cc(F)c7c(c6)C(=O)N(C(C(=O)Nc6nccs6)c6ncn8c6CCC8)C7)cc4)C5)CC3(F)F)cc21 (stereo partly drawn) [Compound 2]	nM	14
O=C1CCC(Nc2ccc(N3CCC(O)(CC(=O)N4CC5(C4)CN(c4ccc(-c6cc(F)c7c(c6)C(=O)N(C(C(=O)Nc6nccs6)c6ncn8c6CCC8)C7)cc4)C5)CC3)c(Cl)c2)C(=O)N1 (single isomer, unassigned; isomer 1) [Compound 7]	nM	17
O=C1CC[C@H](Nc2ccc(N3CCC(O)(CC(=O)N4CC5(CCN(c6ccc(-c7cc(F)c8c(c7)C(=O)N(C(C(=O)Nc7nccs7)c7ncn9c7CCC9)C8)cc6)CC5)C4)CC3)c(F)c2)C(=O)N1 (stereo partly drawn) [Compound 12]	nM	20
O=C1CC[C@H](Nc2ccc(N3CCC(O)(CC(=O)N4CC5(C4)CN(c4ccc(-c6cc(F)c7c(c6)C(=O)N(C(C(=O)Nc6nccs6)c6ncn8c6CCC8)C7)cc4)C5)CC3)c(F)c2)C(=O)N1 (stereo partly drawn) [Compound 1]	nM	9

[1] O=C1CCC(Nc2ccc(C3CCN(CC(=O)N4CC5(C4)CN(c4ccc(-c6cc(F)c7c(c6)C(=O)N(C(C(=O)Nc6nccs6)c6ncn8c6CCC8)C7)cc4)C5)CC3(F)F)cc2)C(=O)N1 (single isomer, unassigned) [Compound 4]
[2] O=C1CCN(c2ccc(N3CCC(O)(CC(=O)N4CC5(C4)CN(c4ccc(-c6cc(F)c7c(c6)C(=O)N(C(C(=O)Nc6nccs6)c6ncn8c6CCC8)C7)cc4)C5)CC3)c(Cl)c2)C(=O)N1 (stereo not drawn) [Compound 8]
Query: I'm curious, which of these has a smaller IC50 number: 1 or 2 ? Answer by stating the label of the chosen item.
Response: 1
